details: in n-butanol, 295.65 K
attribute-measured: solubility (mole fraction)
// no unit, no text: just the number

Which solubility (mole fraction) reading was recorded for the compound `O=Cc1ccc(O)cc1` ?
0.118

---

conditions: in 1,4-dioxane, 295.65 K
attribute-measured: solubility (mole fraction)

Which solubility (mole fraction) reading was recorded for the compound `O=Cc1ccc(O)cc1` ?
0.106

---

conditions: in n-butanol, 300.65 K
attribute-measured: solubility (mole fraction)
// no unit, no text: just the number

Which solubility (mole fraction) reading was recorded for the molecule `O=Cc1ccc(O)cc1` ?
0.143

---

conditions: in ethyl acetate, 303.15 K
attribute-measured: solubility (mole fraction)
// no unit, no text: just the number

Which solubility (mole fraction) reading was recorded for the molecule `O=Cc1ccc(O)cc1` ?
0.184

Reference source: BigSolDB 2.1
